- test-system: CCK-B receptor (Cavia porcellus, UniProt H0VZC5)
- Construct: CCK-B receptor (guinea pig cortex assay); from tissue; host or cells: guinea pig cortex
- Sequence (H0VZC5 entry or part of it): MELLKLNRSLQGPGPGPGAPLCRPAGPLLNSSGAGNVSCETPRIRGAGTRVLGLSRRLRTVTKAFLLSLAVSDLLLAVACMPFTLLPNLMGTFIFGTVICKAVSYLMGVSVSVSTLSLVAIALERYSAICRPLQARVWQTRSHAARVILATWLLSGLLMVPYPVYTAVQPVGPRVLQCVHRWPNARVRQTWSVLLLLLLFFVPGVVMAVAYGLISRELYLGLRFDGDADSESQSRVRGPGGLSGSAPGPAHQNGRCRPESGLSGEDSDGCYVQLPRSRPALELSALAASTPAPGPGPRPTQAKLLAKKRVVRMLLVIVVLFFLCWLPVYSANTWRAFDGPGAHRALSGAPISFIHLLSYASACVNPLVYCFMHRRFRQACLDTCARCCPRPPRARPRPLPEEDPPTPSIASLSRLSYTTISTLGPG
- test-method-notes: CCK receptor binding, CCK-B receptor (guinea pig cortex assay)
- measurement-conditions: read-out: pKi CCK-B (converted)
Below, each entry is listed alongside its reported Ki.
Report the figure in nM without appending any unit label.

Worked cases, Ki given:
molecule	display-unit	Ki
CC(C)C(=O)CN1C(=O)C(NC(=O)Oc2cccc(N(C)C)c2)C(=O)N(c2ccccc2)c2ccccc21 (stereo not shown)	nM	3.09
CN(C)c1cccc(OC(=O)NC2C(=O)N(CCC(C)(C)C)c3ccccc3N(c3ccccc3F)C2=O)c1 (racemic)	nM	1.02
O=C(NC1C(=O)N(CCC2CCCC2)c2ccccc2N(c2ccccc2F)C1=O)Oc1ccccc1 (stereo not shown)	nM	4.57
CC(C)CCN1C(=O)C(NC(=O)Oc2cccc(N(C)C)c2)C(=O)N(c2ccccc2)c2ccc(Cl)cc21 (racemic)	nM	3.39
CN(C)c1cccc(OC(=O)NC2C(=O)N(CC34CC5CC(CC(C5)C3)C4)c3ccccc3N(c3ccccc3)C2=O)c1 (stereo not shown)	nM	12.3
CC(C)CCN1C(=O)C(NC(=O)Oc2cccc(N(C)C)c2)C(=O)N(c2ccccc2F)c2ccccc21 (racemic)	nM	1.58

Please examine the following record next.
Noted for CC(C)(C)CCN1C(=O)C(NC(=O)Oc2ccccc2)C(=O)N(c2ccccc2F)c2ccccc21 (stereo not shown) : its Ki reads 3.89

---

Examples of molecules with documented pKi CCK-A follow.
- test-system: CCK-A receptor
- test-method-notes: CCK receptor binding, CCK-A receptor (Pancreas Assay)
Quick one: just the number, no unit, thanks!

molecule	pKi CCK-A
CC(C)CCN1C(=O)C(NC(=O)Oc2cccc(N(C)C)c2)C(=O)N(c2ccccc2)c2ccccc21 (stereo not drawn)	6.24

Summary: CC(C)(C)CCN1C(=O)C(NC(=O)Oc2ccccc2)C(=O)N(c2ccccc2F)c2ccccc21 (stereo not drawn) , CCK-A receptor, pKi CCK-A = 6.43

Short answer on CCK-A receptor for COc1cccc(OC(=O)NC2C(=O)N(CCC(C)C)c3cc(Cl)ccc3N(c3ccccc3)C2=O)c1 (racemic) , pKi CCK-A: 5.35

Test item CC(C)C(=O)CN1C(=O)C(NC(=O)Oc2cccc(N(C)C)c2)C(=O)N(c2ccccc2)c2ccccc21 (stereo not drawn) ; CCK-A receptor; reported pKi CCK-A was 6.25

---

Measured Ki of individual entries
- test-system: CCK-B receptor (Cavia porcellus, UniProt H0VZC5)
- Construct: CCK-B receptor (guinea pig cortex assay); from tissue; host or cells: guinea pig cortex
- test-method-notes: CCK receptor binding, CCK-B receptor (guinea pig cortex assay)
- measurement-conditions: read-out: pKi CCK-B (converted)
- Procedure: The greater affinity of the compounds of the invention for the CCK-B receptor over the CCK-A receptor has also been established using the CCK receptor binding assays described by G Dal Fornos et al., J. Pharmcol. Exp & Ther. 261, 1056-1063, 1992. The binding affinity of the compounds of the invention for the CCK-A receptor (Pancreas Assay) and CCK-B receptor (guinea pig cortex assay) was determined using the procedure of G Dal Forno et al J. Pharmacol. Exp & Ther. 261--1056-1063. […]
Please respond with the number in nM and leave the unit unwritten.

Study these solved cases before continuing.
molecule	Ki / nM
COc1cccc(OC(=O)NC2C(=O)N(CCC(C)C)c3cc(Cl)ccc3N(c3ccccc3)C2=O)c1 (racemic)	20
CC(C)CCN1C(=O)C(NC(=O)Oc2ccccc2)C(=O)N(c2ccccc2)c2ccccc21 (racemic)	21.4
CC(C)CCN1C(=O)C(NC(=O)Oc2cccc(N(C)C)c2)C(=O)N(c2ccccc2)c2cc(Cl)c(Cl)cc21 (racemic)	7.41
COc1cccc(OC(=O)NC2C(=O)N(CCC(C)C)c3cc(Cl)c(Cl)cc3N(c3ccccc3)C2=O)c1 (racemic)	6.31

Below: the item to evaluate.
Reported Ki ( CC(C)CCN1C(=O)C(NC(=O)Oc2cccc(N(C)C)c2)C(=O)N(c2ccccc2)c2ccccc21 (centres unmarked) ) = 3.16
